biological target: T1, recombinant human CD40 (ECD)-his (human, UniProt P25942 21-193); assay: SPR (Biacore 8K), hCD40(ECD)-his coupled to chip, antibody injected
T1 construct: Bought protein; also called hCD40(ECD)-his; TNFRSF5
T1 sequence (P25942 21-193): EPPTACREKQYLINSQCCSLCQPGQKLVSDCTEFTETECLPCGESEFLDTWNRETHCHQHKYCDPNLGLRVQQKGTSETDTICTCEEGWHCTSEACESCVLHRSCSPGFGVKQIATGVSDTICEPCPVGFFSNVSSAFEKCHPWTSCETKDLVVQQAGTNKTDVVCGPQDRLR
Below: a set of entries, each annotated with reported koff.
# output: bare number, implied unit s⁻¹

binder="7B4-VH2VL3 (antibody, human IgG2, kappa, V domains shown, Humanized, human IgG2/kappa) VH: QVQLQESGPGLVKPSDTLSLTCAVSGYSITTNYYWNWIRQPPGKGLEWMGYIKYDGSNNYNPSLKNRITISVDTSKNQFSLKLSSVTAVDTAVYYCARLDYWGQGTLVTVSS VL: DVVLTQSPLSLPVTLGQPASISCRSSQSLENSNGNTFLNWFQQRPGQSPRLLIYKVSNRFSGVPDRFSGSGSGTDFTLKISRVEAEDVGVYFCLQVTHVPFTFGSGTKLEIKR" assay_result=0.00639

Respond only with koff recorded for chimeric 13A2 antibody (antibody, human IgG2, kappa, V domains shown, Mouse variable regions with human IgG2/kappa constant regions) VH: EVKLEQSGPGLVKPSQSLSLTCSVTGYSITTNYYWNWIRQFPGNKLEWMGYINYDGSNNYNPSLKNRISITRDTSKNQFFLKLNSVTTEDTATYYCARLDYWGQGTSVTVSS VL: DIVMTQSPLSLPVSLGDQASISCRSSQSLENSNGNTFLNWFLQKPGQSPQLLIYKVSNRFSGVLDRFSGTGSGTDFTLTISRVEAEDLGVYFCLQVTHVPFTFGSGTKLEIKR 0.00173

Respond only with koff recorded for chimeric 7B4 antibody (antibody, human IgG2, kappa, V domains shown, Mouse variable regions with human IgG2/kappa constant regions) VH: EVQLQESGPGLVKPSQSLSLTCSVTGYSITTNYYWNWIRQFPGNKLEWMGYIKYDGSNNYNPSLKNRISITRDTSKNQFFLKLNSVTTEDTATYYCARLDYWGQGTSVTVSS VL: DIVLTQSPLSLPVSLGDQASISCRSSQSLENSNGNTFLNWFLQKPGQSPQLLIYKVSNRFSGVLDRFSGTGSGTDFTLTISRVEAEDLGVYFCLQVTHVPFTFGSGTKLEIKR 0.0036
